Test: soluble on expression in E. coli; label from the status in PepcDB or PDB records
property.measured: soluble on expression in E. coli

sequence.text: MSLKAPVDFEQEVAPLLSQRCVSCHSPNIKKGELSLAGPEDLLANGYVVPGDPAGSYLLEVVSPAGDDPAAMPKLGDALAEPEVALLRRWIEQGAVWPDGFVIREASKADRSWWSLQPLADIHPPEVAAAPAAWRQNPIDRFVWAKLSEANLKPNSPADRRTLIRRATFDLTGLPPTAEEIDTFVASDSPDAYPQLIDRMLASPRYGERWGRHWLDVIRFGESRGFERNQIITNLWPFRDYVIRSINEDKPFDQFIREHLAGDVIAPNTPQVEVGSAFLVAGPYDDVGNEGHHHHHH
property.measured: soluble on expression in E. coli
result: soluble
--
sequence.text: MGSDKIHHHHHHMIIMTYYTFVKPFFIKAVTHLHVSSGTSVEEEVDLPFQRDELNYPTIFASSLKGAIKSFLLKEYSNAREIIYKVLGSDENPDEASLGSFLDAVLFAIPARSIGVSGLDEAWVYVTTYELLRKVKSLLESMNTLSATQFTSLLDAINNILQESKNLIISDNAASVILNEDFYVELSNIQNEYIQSLLGDMLIENSTYNQSNQNSQSQGNHLVKPLIVLKDSIGREVINRSLIRVRRIKIKRSSKTVEEGGLWSEEYVPVNSLFFSSFLARGSKDTAYFADCILRKTRYLILGGKETIGKGIVELRWLND
property.measured: soluble on expression in E. coli
result: not soluble
--
sequence.text: MGHHHHHHQQIMKGNFSSFMQKEIFEQPESVVNTMRGRVNFDDYTVNLGGLKDHIKEIQRCRRLILIACGTSYHAGVATRQVLEELTELPVMVELASDFLDRNTPVFRDDVCFFLSQSGETADTLMGLRYCKERGALTVGITNTVGSSISRETDCGVHINAGPEIGVASTKAYTSQFVSLVMFALMMCDDRISMQERRKEIMLGLKRLPDLIKEVLSMDDEIQKLATELYHQKSVLIMGRGYHYATCLEGALKIKEITYMHSEGILAGELKHGPLALVDKLMPVIMIIMRDHTYAKCQNALQQVVARQGRPVVICDKEDTETIKNTKRTIKVPHSVDCLQGILSVIPLQLLAFHLAVLRGYDVDFPRNLAKSVTVE
property.measured: soluble on expression in E. coli
result: soluble
--
sequence.text: MRSLIGMTFLNSSVGQRRLRQNGIVLRLGPVVADRRRATLPHRQGHCLDRQDLETLLLWLQRHFLCVPLEHLLEGPAPACLRIALSVDGNPAELAEQVYPLLERYEMPASAFIGGDPRSWREAVAETLWQADATAAGPLLELLEGYSGAALMAVFERTGDDQRRSRNLDLLLRKLERLDPASQQALHAACPVPAPYSAGDWERVRRLENSGLLRFGLRGQEPHPSAGLCAEDCLGRAHRQLQQHCAAPLPVFCQARTTPAAQPGLRAALGRLGYRFAFGARNGLVDTRCDPLDLPRIEVDAAIAARPGRLAWHIYRGARP
property.measured: soluble on expression in E. coli
result: not soluble
--
sequence.text: MGMTIVEKILAKASGKKEVSPGDIVMANIDVAMVHDITGPLTVNTLKEYGIEKVWNPEKIVILFDHQVPADSIKAAENHILMRKFVKEQGIKYFYDIREGVCHQVLPEKGHVAPGEVVVGADSHTCTHGAFGAFATGIGSTDMAHVFATGKLWFKVPET
property.measured: soluble on expression in E. coli
result: not soluble
--
sequence.text: MSLEQCYTDVTEFAIPASTQKLYLSPVLDGFNSEIIAYNLSTSPNLEQVQTMLEQAFTEKHYENTILHSDQGWQYQHDSYHQFLEGKGIQASMSRKGNSQDNGMMESFFGILKSEMFYGYEKTFKSLNQLEQAIVDYIDYYNNKRIKVKLKGLSPVQYRTKSFGEGHHHHHH
property.measured: soluble on expression in E. coli
result: soluble
--
sequence.text: MSLSDFLILSDPDLDTLGITTDEIQTALEAAIRAQIRATVHVAPKSALLPGDGRYVMTTLATGNSPALTVVKSVMVSPDNPARGLPGTEGVLLVQDSETGQLRALMQAGWITRMRTAGLSALVARRLGDPAARVVAFIGAGAQARAHLAALCDLFPLQRAVILGRGAENIARLSAAARARGLQAEIADNPHQAIADADLVVSSVTLDHQMTPFLDARWLKPGAFASLTDTGLPWQPDGMAALDPLYIDDLAQEAANPRPMIDPARVGGDLAALLGEDLHSTNVNRHDPSRRAGFLFRGPAIADFALAALALHRAQSLGAGRDTAWPDATREGHHHHHH
property.measured: soluble on expression in E. coli
result: soluble
--
sequence.text: MGSDKIHHHHHHMFDWENVRHFLAVARIGTLSGAARSLKVDHATVSRRLSALEDEIKTRLIERLPRACKLTLIGQRVFELAQGMEEDAYAIERFVDASRSPLSGKVSLSAPPVLVAHFLAKHLADFRRVHPGVQLSVSGEARQISLSRREADVALRLVRPEEGTSVVRKLGRMSFDLYASRDYPHLHNPSAWEFISYDAGFTDMPQQKWLMSVARGRPIACEISDINGHLAATQAGAGVAGLPDFLADTDAKLQRVAYDGEPFSRDIWLAVHRDLRRSPHVRAVMDFLLKIVKENPAFTISG
property.measured: soluble on expression in E. coli
result: not soluble
--
sequence.text: GPGSMPKSKRATIVPLTKTRSKTREEKDELINKIRDALDDYTDVYTFELSNIRTNILQQIREERRNDSRLFLGNNKLLMIALGRDDSSSQRPNLHKLSKYLTGSCGLLFTNLPHQDVKEYFKGVSADVFARTGQVATCPLLLRTGPLAQFPHSMFDHLSRLGLPIKLDKGVIVLLRDTTVCEVGDTLTAEAAQLLKLFGIQSAEFKLELTAHWAKGVVKRMSKKKKEEEN
property.measured: soluble on expression in E. coli
result: soluble
--
sequence.text: MKIPIPSIGHVALLASAILFASSANAASDEDGIIIYNAQHESFAKSWAEGFTKDTGIKVTLRNGKDSELGNQLIQEGSSSPADVFLTENSPAMVLVDNAKLFAPLDAATQAQVAKEYRPEDGRWTGIAARSTVFVYNPAKISEAELPKSLMDLAKPEWKGRWAASPSGADFQAIVSAMLALKGEQATLEWLKAMKTNATAYKGNSTVMKAVNAGQIDGGVIYHYYPFVDQAKTGENSGNIKLHYFKNKDPGAFVSISGAGVLASSKHPQQAQKFVQWVTGKAGQDFLRESNSAFEYAVGVNAASNPKLVPLKDLDPPKVEVSKLNSKKVVELMTEAGLL
property.measured: soluble on expression in E. coli
result: not soluble

====

Assay: soluble on expression in E. coli; label from the status in PepcDB or PDB records
property.measured: soluble on expression in E. coli

sequence.text: MSLGARELHAHLKGGAATVCRCWAVTRRDGTVFGFTDHDRDLTFEGRLFRAETGLTSSALQQTTGLSVDNAETVGALSHVSVTEADLLAGRFDGAEVLAWLVNWADVSERLLQFRGTLGEITHSGGRFRAELRGLTEALNQPQGRVYQRSCQAVLGDRACGFDLSAEEFATERAVETVVGRQSFSFEGLHSFPDRWFEQGRLVVMTGEAAGAMGVIKSDRRRGEVRTVELWEALGPQITVGDRVRLEAGCDRMAETCRLKFNNLRNFRGFPHLSGEDWLSAYPAATGTHDGGSLWEEGHHHHHH
result: soluble
//
sequence.text: MGSDKIHHHHHHENLYFQGMKIKVALLDKDKEYLDRLTGVFNTKYADKLEVYSFTDEKNAIESVKEYRIDVLIAEEDFNIDKSEFKRNCGLAYFTGTPGIELIKDEIAICKYQRVDVIFKQILGVYSDMAANVATISGENDKSSVVIFTSPCGGVGTSTVAAACAIAHANMGKKVFYLNIEQCGTTDVFFQAEGNATMSDVIYSLKSRKANLLLKLESCIKQSQEGVSYFSSTKVALDILEISYADIDTLIGNIQGMDNYDEIIVDLPFSLEIEKLKLLSKAWRIIVVNDGSQLSNYKFMRAYESVVLLEQNDDINIIRNMNMIYNKFSNKNSEMLSNISIKTIGGAPRYEHATVRQIIEALTKMEFFEEILQ
result: soluble
//
sequence.text: MSIRLAQVTDIPVLKELLNQIFQVHQTVRPDLFKNTDKGSKYSETELKELLQDESKPIFVYTDGKNRVLGHLFLVIKETKGSSVSKPLKTLFIDDLCVSKEARGQKIGQELFEFALKYAKKLGCYDLTLNVWNDNKGALAFYERQGLKARETKMEKILLEHHHHHH
result: soluble

====

Test: soluble on expression in E. coli; label from the status in PepcDB or PDB records
property.measured: soluble on expression in E. coli

sequence.text: MGSDKIHHHHHHMENTIYLSSAYLAPVEYYTKLFACEKAYVEQYDNYVKQTYRNRCVIAAADGPLALTIPTEKSGTPKCLMKDVRISDHGNWRHIHWNALVAAYRNSPFFEYYADDFHVFYEKKYAFLWDYNQEICSLVCDLIDIHPHMEGTTEYCMEFVPGEVDFRETIHPKRDWREADADFCPKPYYQVFDAKYGFLPNLSIADLLFNMGPESLIVLRDSVKGINHKE
result: not soluble

sequence.text: MQNEKTLRKIKKLLALSKSSNPHEAAKALEMAQKLMQENRINQVEIEFSQYHGKQKTAKKSARYVHQLVGVITRAFGVDAYMSNFYPDKDEAEEKMHVVFYGAEGRPEIASYCFDVLYRQLQTARKEFLATQSKRLKRSTLISRGDEFCQGWVFGVHENVKEFAMTPEEKGKLERYRYNGFKDLQTAKVRDAGETRDYGLALSQGYKQGSKVTLNHGVNGKETTKLGGDEMKENNGWIACNLGSA
result: not soluble

sequence.text: MGSDKIHHHHHHMHGREAEDGVRSNPTGRQLRFGAELRKLREQAGLSATDAGQLLGIKQTQVSNMEAGRVGVSADRVRTLACHYECSDKALVEAIAAMTGDRTRGWWEEYREILPVGLLDLAELEHHATRLRTAVTVHIPGLFQTTEYAREIFRQAVPELPQPDVEHRVSFRIKRQAILFRDPPTPHQIIVHEAALRMRFGGSDVTRDQLKYLTAMNEREHISVQVIPFDTGVLPGSGQSIYYAEGPVPQLDTVNLDQSHGPVFLDAGAQLRKYRGLLDRMESAALSPEDSQKFIHTILKAL
result: not soluble

Each recorded value in this set is attributed to the DeepSol protein solubility set.
